Values compiled from patent US20210238162A1.

molecular target: haematopoietic prostaglandin D synthase (H-PGDS) (Homo sapiens, UniProt O60760); construct: Full length human H-PGDS cDNA (Invitrogen Ultimate ORF IOH13026) was amplified by PCR; made in house; host or cells: E. coli BL21 (DE3*), vector pET22b+; experiment: H-PGDS RapidFire High Throughput Mass Spectrometry Assay; format: biochemical; details: H-PGDS RapidFire MS assay, mean pIC50; read-out: Potency Range (mean pIC50) (converted)
Sequence (O60760 whole entry): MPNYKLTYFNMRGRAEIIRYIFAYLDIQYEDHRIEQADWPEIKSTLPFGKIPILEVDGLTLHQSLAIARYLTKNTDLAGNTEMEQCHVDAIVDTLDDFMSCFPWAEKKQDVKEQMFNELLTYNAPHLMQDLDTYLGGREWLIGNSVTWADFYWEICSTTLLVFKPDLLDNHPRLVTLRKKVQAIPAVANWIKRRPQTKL
As shown below, each of these molecules has a reported IC50 value.

### Prompt Item under review: "O=C(N[C@H]1CC[C@H](N2CC(F)(F)C2)CC1)c1cnc2cc(OC(F)F)c(F)cc2c1" . Reported IC50?
### Response 10 to 79.4 nM

### Prompt Item under review: CC(C)(O)[C@H]1CC[C@H](NC(=O)c2cnc3cc(C4CC4(F)F)c(F)cc3c2)CC1 (some centres unmarked) . Reported IC50?
### Response 10 to 79.4 nM

### Prompt Item under review: "C[C@@H](NC[C@H]1CC[C@H](NC(=O)c2cnc3cc(OC(F)F)c(F)cc3c2)CC1)C(F)F" . Reported IC50?
### Response 10 to 79.4 nM

### Prompt Item under review: "COc1cc2ncc(C(=O)NC3CCN(c4nnnn4C)CC3)cc2cc1C#N" . Reported IC50?
### Response 100 to 1000 nM

### Prompt Item under review: "COc1cc2ncc(C(=O)NC3CCN(c4nnnn4C)CC3)cc2cc1Cl" . Reported IC50?
### Response 10 to 79.4 nM

====

As shown below, each of these compounds has a reported IC50 value.
target: haematopoietic prostaglandin D synthase (H-PGDS) (Homo sapiens); construct: Full length human H-PGDS cDNA (Invitrogen Ultimate ORF IOH13026) was amplified by PCR; made in house; host or cells: E. coli BL21 (DE3*), vector pET22b+; assay: H-PGDS RapidFire High Throughput Mass Spectrometry Assay; assay type: biochemical; conditions: H-PGDS RapidFire MS assay, mean pIC50; read-out: Potency Range (mean pIC50) (converted)
Counter-ions that a name gives are not always drawn.

[
  {
    "Compound": "CC(C)(O)C(=O)N1CCC(NC(=O)c2cnc3cc(OC(F)F)c(Cl)cc3c2)CC1 [Example 220]",
    "IC50": "< 10 nM"
  },
  {
    "Compound": "O=C(N[C@H]1CC[C@@](O)(C(F)(F)F)CC1)c1cnc2cc(OC(F)F)c(Cl)cc2c1 [Example 227]",
    "IC50": "10 to 79.4 nM"
  },
  {
    "Compound": "O=C(N[C@H]1CC[C@H](N2CC(F)C2)CC1)c1cnc2cc(OC(F)F)c(Cl)cc2c1 [Example 132]",
    "IC50": "< 10 nM"
  }
]

### Prompt Item under review: COc1cccc2cc(C(=O)N[C@H]3CC[C@H](C(C)(C)O)CC3)cnc12 [Example 189] . Reported IC50?
### Response 100 to 1000 nM

### Prompt Item under review: O=C(NC1CCN(c2ccccn2)CC1)c1cnc2cc(OC(F)F)c(F)cc2c1 [Example 95] . Reported IC50?
### Response < 10 nM

### Prompt Item under review: CC(N[C@H]1CC[C@H](NC(=O)c2cnc3cc(OC(F)F)c(Br)cc3c2)CC1)C(F)F (mixture of isomers) [Example 156] . Reported IC50?
### Response < 10 nM

### Prompt Item under review: O=C(N[C@H]1CCNC1=O)c1cnc2cc(C3CC3)ccc2c1 [Example 45, hydrochloride] . Reported IC50?
### Response 10 to 79.4 nM

### Prompt Item under review: CCOC(=O)c1coc(N2CC(NC(=O)c3cnc4cc(OC(F)F)c(F)cc4c3)C2)n1 [Example 82] . Reported IC50?
### Response 10 to 79.4 nM

### Prompt Item under review: CC(C)(O)[C@H]1CC[C@H](NC(=O)c2cnc3cc(N4CCC4)c(F)cc3c2)CC1 [Example 162] . Reported IC50?
### Response < 10 nM

### Prompt Item under review: CCOC(=O)C[C@H]1CC[C@H](NC(=O)c2cnc3cc(OC(F)F)c(F)cc3c2)CC1 [Example 88] . Reported IC50?
### Response 10 to 79.4 nM

### Prompt Item under review: C#CCCNC(=O)CO[C@H]1CC[C@H](NC(=O)c2cnc3cc(OC(F)F)c(F)cc3c2)CC1 [Example 103] . Reported IC50?
### Response 10 to 79.4 nM

### Prompt Item under review: O=C(N[C@H]1CCNC1=O)c1cnc2cc(C3CC3)c(Cl)cc2c1 [Example 35, hydrochloride] . Reported IC50?
### Response < 10 nM

### Prompt Item under review: O=C(N[C@H]1CCNC1=O)c1cnc2cc(OC(F)F)c(Br)cc2c1 [Example 154] . Reported IC50?
### Response < 10 nM
